- TARGET_DESC: Dipeptidyl peptidase 4 (Homo sapiens, UniProt P27487)
- Sequence (P27487 whole entry): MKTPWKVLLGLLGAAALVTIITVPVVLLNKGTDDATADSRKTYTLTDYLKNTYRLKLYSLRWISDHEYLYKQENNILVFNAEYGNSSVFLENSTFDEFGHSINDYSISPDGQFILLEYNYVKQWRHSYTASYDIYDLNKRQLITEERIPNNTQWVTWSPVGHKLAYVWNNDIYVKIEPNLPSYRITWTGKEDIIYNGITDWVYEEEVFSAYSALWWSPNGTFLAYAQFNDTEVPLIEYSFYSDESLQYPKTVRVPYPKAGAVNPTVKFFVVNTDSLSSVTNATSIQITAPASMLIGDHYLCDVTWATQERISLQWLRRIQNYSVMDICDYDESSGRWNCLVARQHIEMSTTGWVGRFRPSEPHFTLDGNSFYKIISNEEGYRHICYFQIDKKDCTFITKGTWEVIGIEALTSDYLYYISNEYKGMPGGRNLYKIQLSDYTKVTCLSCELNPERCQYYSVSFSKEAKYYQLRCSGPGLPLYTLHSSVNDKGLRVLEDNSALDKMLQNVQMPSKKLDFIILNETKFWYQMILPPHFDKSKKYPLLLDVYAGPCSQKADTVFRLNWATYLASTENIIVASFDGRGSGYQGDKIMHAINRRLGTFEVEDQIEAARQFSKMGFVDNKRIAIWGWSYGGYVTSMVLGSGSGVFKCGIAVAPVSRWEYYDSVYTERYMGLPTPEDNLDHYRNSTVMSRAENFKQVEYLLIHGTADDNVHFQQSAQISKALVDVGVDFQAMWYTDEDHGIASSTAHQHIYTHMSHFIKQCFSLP
- ASSAY_PROCEDURE: Inhibition of DPP4 (unknown origin) using Gly-Pro-AMC as substrate preincubated for 4 secs followed by substrate addition and measured after 30 mins by […] assay
The entries below come with measured log10(IC50) values attached.
Hey, these are logged values: log10 of IC50, nM being the unit before logging.

Field: example entries. Status: answers known.
COMPOUND: O=C(O)/C=C/c1ccc(O)c(O)c1
MEASURED_QUANTITY: log10(IC50)
MEASUREMENT: 3.53
//
COMPOUND: Oc1ccc(/C=C/c2cc(O)cc(O)c2)cc1
MEASURED_QUANTITY: log10(IC50)
MEASUREMENT: -0.22
//
COMPOUND: COc1cc(-c2[o+]c3cc(O)cc(O)c3cc2O)cc(OC)c1O [MALVIDIN CHLORIDE]
MEASURED_QUANTITY: log10(IC50)
MEASUREMENT: 3.15
//
COMPOUND: O=c1cc(-c2ccccc2)oc2ccccc12
MEASURED_QUANTITY: log10(IC50)
MEASUREMENT: 2.23
//
COMPOUND: O=c1c(O)c(-c2ccc(O)c(O)c2)oc2cc(O)cc(O)c12
MEASURED_QUANTITY: log10(IC50)
MEASUREMENT: 3.47

Asked: Name the recorded log10(IC50) for `O=c1c(O)c(-c2ccc(O)cc2)oc2cc(O)cc(O)c12` .
Given back: 2.69

Asked: Moving on to the next compound: `OC[C@H]1O[C@@H](Oc2cc3c(O)cc(O)cc3[o+]c2-c2ccc(O)c(O)c2)[C@H](O)[C@@H](O)[C@@H]1O`
Given back: 2.62

Asked: Moving on to the next compound: `O=c1cc(-c2ccc(O)cc2)oc2cc(O)cc(O)c12`
Given back: 2.15

Asked: Moving on to the next compound: O=C(O[C@@H]1Cc2c(O)cc(O)cc2O[C@@H]1c1cc(O)c(O)c(O)c1)c1cc(O)c(O)c(O)c1 [EPIGALOCATECHIN GALLATE]
Given back: 4.01

Asked: Moving on to the next compound: `O=c1c(-c2ccc(O)cc2)coc2cc(O)cc(O)c12`
Given back: 2.68

====

- TARGET_DESC: Dipeptidyl peptidase 4 (Homo sapiens)
- ASSAY_PROCEDURE: Inhibition of DPP4 (unknown origin) using Gly-Pro-AMC as substrate preincubated for 4 secs followed by substrate addition and measured after 30 mins by […] assay
The entries below come with measured pIC50 values attached.
Here pIC50 is given on a logarithmic scale as minus log10 of the concentration in mol/L.

MOLECULE: O=c1cc(-c2ccc(O)c(O)c2)oc2cc(O)cc(O)c12
MEASURED_QUANTITY: pIC50
MEASUREMENT: 6.92
--
MOLECULE: O=C1C[C@@H](c2ccc(O)cc2)Oc2cc(O)cc(O)c21
MEASURED_QUANTITY: pIC50
MEASUREMENT: 6.62
--
MOLECULE: COc1ccc([C@@H]2CC(=O)c3c(O)cc(O)cc3O2)cc1O
MEASURED_QUANTITY: pIC50
MEASUREMENT: 6.55
--
MOLECULE: Oc1cc(O)c2cc(O)c(-c3ccc(O)c(O)c3)[o+]c2c1 [CYANIDIN CHLORIDE]
MEASURED_QUANTITY: pIC50
MEASUREMENT: 5.85

Asked: Name the recorded pIC50 for `C[C@@H]1O[C@@H](OC[C@H]2O[C@@H](Oc3cc(O)c4c(c3)O[C@H](c3ccc(O)c(O)c3)CC4=O)[C@H](O)[C@@H](O)[C@@H]2O)[C@H](O)[C@H](O)[C@H]1O` .
Given back: 4.98

Asked: Moving on to the next molecule: `O=C(O)c1cc(O)c(O)c(O)c1`
Given back: 5.33

// provenance: ChEMBL document CHEMBL4229387
